Consider the following compounds; for each one, report its IC50.
- Study target: Flag/GST-tagged recombinant human B-Raf (Homo sapiens)
- Construct: Flag; GST; made in house; host or cells: Sf9 insect cells (B-Raf); E. coli (MEK1-GST)
- Sequence (P15056 whole entry): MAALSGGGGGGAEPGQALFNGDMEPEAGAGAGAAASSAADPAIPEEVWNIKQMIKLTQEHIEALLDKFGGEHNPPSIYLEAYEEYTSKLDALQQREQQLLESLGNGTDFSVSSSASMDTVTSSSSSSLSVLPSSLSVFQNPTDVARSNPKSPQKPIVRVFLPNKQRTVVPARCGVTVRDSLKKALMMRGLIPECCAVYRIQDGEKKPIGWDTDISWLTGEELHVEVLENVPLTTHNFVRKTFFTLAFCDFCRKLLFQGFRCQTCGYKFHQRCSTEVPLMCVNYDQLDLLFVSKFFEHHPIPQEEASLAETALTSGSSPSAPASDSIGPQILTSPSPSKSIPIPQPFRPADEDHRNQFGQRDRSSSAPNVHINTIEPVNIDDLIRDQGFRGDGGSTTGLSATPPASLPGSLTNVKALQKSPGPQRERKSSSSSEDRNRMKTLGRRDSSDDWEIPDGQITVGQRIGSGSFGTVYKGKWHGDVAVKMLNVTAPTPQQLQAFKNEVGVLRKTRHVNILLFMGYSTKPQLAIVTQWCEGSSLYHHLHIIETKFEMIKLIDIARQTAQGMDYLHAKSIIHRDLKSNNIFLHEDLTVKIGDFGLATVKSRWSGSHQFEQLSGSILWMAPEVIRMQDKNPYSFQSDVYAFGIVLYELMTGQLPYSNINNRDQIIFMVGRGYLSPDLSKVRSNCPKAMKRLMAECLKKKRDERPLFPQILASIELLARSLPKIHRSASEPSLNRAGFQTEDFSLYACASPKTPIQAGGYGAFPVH
- Assay protocol: B-Raf kinase assay (phosphorylation of GST-MEK1, phospho-MEK1 antibody/Europium detection)
- Type: biochemical
- Assay conditions: B-Raf IC50 Data for compounds of Formula A; read-out: Mean IC50
Numeric answer only, unit nM assumed.

What the record says about Fc1cc(CN2C[C@H]3C[C@@H]2CO3)ccc1-c1ccnc2c(-c3cccc4[nH]ncc34)c(-c3ccncc3)nn12 [Example 207] : IC50 is 0.5

What the record says about CN(C)C(=O)N1C2CCC1CC(c1ccnc3c(-c4cccc5[nH]ncc45)c(-c4ccncc4)nn13)C2 (stereo not drawn) [Example 120] : IC50 is 6.4

What the record says about CCN1C2CCC1CC(c1ccnc3c(-c4cccc5[nH]ncc45)c(-c4ccncc4)nn13)C2 (stereo not drawn) [Example 90] : IC50 is 46

What the record says about Fc1ccc(-c2c(-c3ccncc3)nn3c2nccc3[C@H]2CC[C@@H](N3C[C@@H]4C[C@H]3CN4)CC2)c2cn[nH]c12 [Example 176] : IC50 is 1

What the record says about CCOC(=O)N1C2CCC1CC(c1ccnc3c(-c4ccc(Cl)c(O)c4)c(-c4ccncc4)nn13)C2 (stereo not drawn) [Example 11] : IC50 is 2

What the record says about CN1C[C@@H]2C[C@H]1CN2c1cccc(-c2ccnc3c(-c4cccc5[nH]ncc45)c(-c4ccncc4)nn23)c1 [Example 126] : IC50 is 61.2

What the record says about c1cc(-c2c(-c3ccncc3)nn3c(-c4coc(CN5C[C@@H]6C[C@H]5CN6)c4)ccnc23)c2cn[nH]c2c1 [Example 195] : IC50 is 13

What the record says about Fc1cc(F)c(-c2ccnc3c(-c4cccc5[nH]ncc45)c(-c4ccncc4)nn23)c(N2C[C@@H]3C[C@H]2CN3)c1 [Example 145] : IC50 is 74.4

What the record says about c1cc(-c2c(-c3ccncc3)nn3c2nccc3[C@H]2CC[C@@H](N3CC4CCC(C3)O4)CC2)c2cn[nH]c2c1 (relative stereo) [Example 152] : IC50 is 6.4

What the record says about CCN1C2CCC1CC(c1ccnc3c(-c4ccc(F)c(O)c4)c(-c4ccncc4)nn13)C2 (stereo not drawn) [Example 64] : IC50 is 3

What the record says about CN1C[C@@H]2C[C@H]1CN2c1ccc(-c2ccnc3c(-c4cccc5[nH]ncc45)c(-c4ccncc4)nn23)c(F)c1 [Example 94] : IC50 is 0.1

What the record says about CN1C2CCC1CN(c1ccc(-c3ccnc4c(-c5cccc6[nH]ncc56)c(-c5ccncc5)nn34)cn1)C2 [Example 140] : IC50 is 1.2

What the record says about Fc1ccc(-c2c(-c3ccncc3)nn3c2nccc3[C@H]2CC[C@@H](N3C4CCC3COC4)CC2)c2cn[nH]c12 (relative stereo) [Example 181] : IC50 is 2.1

What the record says about Fc1ccc(-c2c(-c3ccncc3)nn3c2nccc3[C@H]2CC[C@H](N3C[C@@H]4C[C@H]3CO4)CC2)c2cn[nH]c12 [Example 178] : IC50 is 6.7

What the record says about CN1C[C@@H]2C[C@H]1CN2c1ccc(-c2ccnc3c(-c4cccc5[nH]ncc45)c(-c4ccncc4)nn23)c2ccccc12 [Example 160] : IC50 is 25.3

What the record says about CCOC(=O)N1C2CCC1CC(c1ccn3nc(-c4ccncc4)c(-c4ccc(F)c5[nH]ncc45)c3n1)C2 (stereo not drawn) [Example 131] : IC50 is 1

What the record says about c1cc(-c2c(-c3ccncc3)nn3c2nccc3[C@H]2CC[C@@H](N3C[C@@H]4C[C@H]3CN4)CC2)c2cn[nH]c2c1 [Example 149] : IC50 is 3.2

What the record says about Oc1cccc(-c2c(-c3ccncc3)nn3c(NCC45CCN(CC4)CC5)ccnc23)c1 [Example 6] : IC50 is 57

What the record says about Cc1ccc(-c2c(-c3ccncc3)nn3c(-c4ccc(N5C[C@@H]6C[C@H]5CN6C)nc4)ccnc23)c2cn[nH]c12 [Example 40] : IC50 is 0.7

What the record says about CCOC(=O)N1C2CCC1CC(c1ccnc3c(-c4cccc(OC)c4)c(-c4ccncc4)nn13)C2 (stereo not drawn) [Example 7] : IC50 is 87

What the record says about CCN1C2CCC1CC(c1ccnc3c(-c4ccc(Cl)c(OC)c4)c(-c4ccncc4)nn13)C2 (stereo not drawn) [Example 17] : IC50 is 44
